src = ChEMBL document CHEMBL1144035

- Test system: CCRF-CEM
- Assay Notes: Cytostatic activity in human CCRF-CEM cells assessed as inhibition of cell growth after 72 hrs
- Type: functional, cell-based
Active and inactive are the calls of the source. The calls are words filed in the database; no cut-off is given here.
Measured Metric: Activity

>>> reported_value("OC[C@H]1O[C@@H](n2cnc3c(CSc4ccccc4)ncnc32)[C@H](O)[C@@H]1O")
"inactive"
>>> reported_value("O=C(O)CNCc1ncnc2c1ncn2[C@@H]1O[C@H](CO)[C@@H](O)[C@H]1O")
"inactive"
>>> reported_value("O=C(O)CSCc1ncnc2c1ncn2[C@@H]1O[C@H](CO)[C@@H](O)[C@H]1O")
"inactive"
>>> reported_value("OC[C@H]1O[C@@H](n2cnc3c(CS)ncnc32)[C@H](O)[C@@H]1O")
"inactive"
>>> reported_value("OC[C@H]1O[C@@H](n2cnc3c(CN4CCCCC4)ncnc32)[C@H](O)[C@@H]1O")
"inactive"
